The origin of these recorded values is PubChem BioAssay.

Items are presented alongside their recorded composite z-score.
# Experimental System: Concanavalin-A (Canavalia ensiformis)
# Experimental Protocol: ConA small-molecule binders, primary screen, artefact control for SMM control protein annotation, biochemical, small-molecule microarray, Alexa647 label, 635 nm (AID 1127);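 also: z combines 667 nm emission intensity with signal-to-noise across three replicate slides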
# Condition Context: ConA-A647 binding fluorescence, higher = more signal

>  <Compound>
CC(C)CN1C(=O)[C@@]2(c3ccc([N+](=O)[O-])cc3)CC(=O)N(CC34CC5CC(CC(C5)C3)C4)[C@@H]2c2ccc(CO)cc21

>  <composite z-score>
0.436

$$$$
>  <Compound>
COCCOC(=O)N1C(=O)[C@@]2(c3cc(C#CC4=CCCCC4)ccc31)[C@H](c1ccc(O)cc1)N1[C@H](c3ccccc3)[C@H](c3ccccc3)OC(=O)[C@H]1[C@@H]2C(=O)Nc1nc2ccccc2s1

>  <composite z-score>
1.12

$$$$
>  <Compound>
C=CCNC(=O)[C@@H]1[C@H]2C(=O)O[C@H](c3ccccc3)[C@H](c3ccccc3)N2[C@H](c2ccccc2OCCO)[C@@]12C(=O)N(C(=O)OCCOC)c1ccc(C#CC3=CCCCC3)cc12

>  <composite z-score>
1.12

$$$$
>  <Compound>
C=C(CCCC)C(=O)CC[C@@H](OC(=O)c1ccccc1-c1ccccc1C(=O)O)c1cccc(OCCO)c1

>  <composite z-score>
-0.5

$$$$
>  <Compound>
CCOC(=O)C1=CC[C@@H](c2ccc([N+](=O)[O-])cc2)N(S(=O)(=O)c2ccc(C)cc2)[C@H]1c1ccccc1

>  <composite z-score>
0.842

$$$$
>  <Compound>
CCOc1cc(C(O)C2C=CC3C(=O)N(C)C(=O)C3N2N2CCCCC2)ccc1O (stereo not given)

>  <composite z-score>
0.852

$$$$
>  <Compound>
COCCOC(=O)N1C(=O)[C@@]2(c3cc(C#CCNC(N)=O)ccc31)[C@H](C(=O)N1CCCCCCC1)[C@H]1C(=O)O[C@H](c3ccccc3)[C@H](c3ccccc3)N1[C@@H]2c1ccc(O)cc1

>  <composite z-score>
1.03

$$$$
>  <Compound>
Cc1ccc(F)cc1S(=O)(=O)N[C@@H]1CCN(Cc2ccc(Oc3ccccc3)cc2)C1

>  <composite z-score>
-0.905

$$$$
>  <Compound>
CN1C(=O)[C@@]2(CCS(=O)(=O)c3ccccc3)N=C(c3ccc(OCCCO)cc3)O[C@H]2c2ccccc21

>  <composite z-score>
1.1

$$$$
>  <Compound>
O=C(CCCCCCC(=O)Nc1ccccc1)N/N=C/c1ccccc1

>  <composite z-score>
-0.434

$$$$
>  <Compound>
[N-]=[N+]=NCc1ccccc1[C@H]1OC(c2ccc(OCCCO)cc2)=N[C@@]1(CCS(=O)(=O)c1ccccc1)C(N)=O

>  <composite z-score>
1.2

$$$$
>  <Compound>
CN1C(=O)C2C=CC(C(O)c3c(F)cccc3Cl)N(Nc3ccccc3)C2C1=O (stereo not given)

>  <composite z-score>
1.18

$$$$
>  <Compound>
O=C(NC1CC1)[C@@H]1c2ccccc2C(=O)N(Cc2ccccc2)[C@H]1c1ccc(CO)cc1

>  <composite z-score>
0.38

$$$$
>  <Compound>
C=C(CCCC)C(=O)CC[C@@H](OC(=O)c1cccnc1)c1ccccc1OCCO

>  <composite z-score>
-1.51

$$$$
>  <Compound>
COC1(C)CN(Cc2ccccc2Br)[C@H](/C=C/c2ccccc2)[C@H](Cc2ccccc2)O1 (stereo not given in full)

>  <composite z-score>
-0.0737

$$$$
>  <Compound>
COc1cc2c(cc1OC)CN(C(=O)[C@@H]1[C@H]3C(=O)O[C@H](c4ccccc4)[C@H](c4ccccc4)N3[C@H](c3ccccc3OCCO)[C@@]13C(=O)Nc1ccc(C#CC4(O)CCCCCC4)cc13)CC2

>  <composite z-score>
1.13

$$$$
>  <Compound>
CC(C)CN1C(=O)[C@@]2(Cc3ccccc31)c1ccccc1C(=O)N(Cc1ccccc1C(F)(F)F)[C@H]2c1ccc(CO)cc1

>  <composite z-score>
0.027

$$$$
>  <Compound>
Cc1c(NC(=O)/C(C#N)=C/C=C/c2ccc(N(C)C)cc2)c(=O)n(-c2ccccc2)n1C

>  <composite z-score>
1.1

$$$$
>  <Compound>
CN(C)CCCNC(=O)[C@@H]1c2ccccc2C(=O)N(Cc2ccc(OC(F)(F)F)cc2)[C@H]1c1ccc(CO)cc1

>  <composite z-score>
0.675

$$$$
>  <Compound>
C=C(CCCC)/C(=C/C[C@@H](OC(=O)c1ccncc1)c1cccc(OCCO)c1)c1cnc2ccccc2c1

>  <composite z-score>
1.1

$$$$
>  <Compound>
COC(=O)[C@H](Cc1ccccc1)N1CC(/C=C/C2CC2)=C[C@@H]1[C@@H](O)Cc1ccccc1

>  <composite z-score>
1

$$$$
>  <Compound>
CCC[C@@H]1C[C@@]1(CCC)[C@@H](NP(=O)(c1ccccc1)c1ccccc1)c1ccc(Cl)cc1

>  <composite z-score>
-0.765

$$$$
>  <Compound>
C=CCN1Cc2ccccc2C[C@@]2(N=C(c3ccc(OCCCO)cc3)O[C@H]2c2ccccc2)C1=O

>  <composite z-score>
1.14

$$$$
>  <Compound>
CCCc1cccc(=O)o1

>  <composite z-score>
0.828

$$$$
>  <Compound>
COCCOC(=O)N1C(=O)[C@@]2(c3cc(C#CC4=CCCCC4)ccc31)[C@H](C(=O)N1CCN(c3ncccn3)CC1)[C@H]1C(=O)O[C@H](c3ccccc3)[C@H](c3ccccc3)N1[C@@H]2c1ccc(O)cc1

>  <composite z-score>
1.13

$$$$
>  <Compound>
O=C1c2ccccc2[C@@]2(Cc3ccccc3N(C3CC3)C2=O)[C@H](c2ccc(CO)cc2)N1C1CCCCC1

>  <composite z-score>
-1.02

$$$$
>  <Compound>
CCOC(=O)C[C@H]1[C@H](OC(=O)c2ccccc2-c2ccccc2)[C@@H](NC(=O)CC(C)C)c2cc(OCCCO)ccc2N1C(=O)c1ccc2ccccc2n1

>  <composite z-score>
0.629

$$$$
>  <Compound>
COc1cc(CO)cc(I)c1O[C@H]1C=C(C(=O)NCCO)C[C@@H](N(CC2CCCCC2)C(=O)c2ccc(C(F)(F)F)cc2)[C@@H]1O

>  <composite z-score>
0.352

$$$$
>  <Compound>
CCCNC(=O)[C@@]1(c2ccc([N+](=O)[O-])cc2)CC(=O)N(C2CCCCC2)[C@@H]1c1ccc(CO)cc1I

>  <composite z-score>
1.07

$$$$
>  <Compound>
NC(=O)NCC#Cc1ccc2c(c1)[C@]1(C(=O)N2)[C@H](c2ccc(O)cc2)N2[C@H](c3ccccc3)[C@H](c3ccccc3)OC(=O)[C@H]2[C@@H]1C(=O)Nc1nc2ccccc2s1

>  <composite z-score>
0.962

$$$$

###

# Experimental Protocol: binders of probe aHhip on microarray, primary screen, stem cell growth factor project, biochemical, small-molecule microarray, fluorescence 635/667 (AID 1087);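 also: score merges spot fluorescence at 667nm with spot signal to noise ratio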
# Condition Context: higher = more signal
Binary call on composite z-score: label 1 from -0.06 upward, label 0 beneath that.

>  <Molecule>
C=CCC(OC(C)=O)[C@@H]1[C@@H](N(Cc2cc3ccccc3o2)C(=O)c2ccc(C)cc2)c2cc(OCCCO)ccc2N1C(=O)Cc1ccc2ccccc2c1 (some centres not stated)

>  <Group Label>
label 1

$$$$
>  <Molecule>
CC(C)(C)OC(=O)CC[C@@]1(C(=O)O)N=C(c2ccc(OCCCO)cc2)O[C@@H]1c1ccccc1

>  <Group Label>
label 1

$$$$
>  <Molecule>
C[C@]1(C(=O)O)c2ccccc2C(=O)N(Cc2ccccc2)[C@H]1c1ccc(CO)cc1

>  <Group Label>
label 0

$$$$
>  <Molecule>
CCOC(=O)C[C@H]1[C@H](OC(=O)c2ccccc2-c2ccccc2)[C@@H](NC(=O)c2ccc3ccccc3n2)c2cc(OCCCO)ccc2N1C(=O)c1ccc2ccccc2n1

>  <Group Label>
label 0

$$$$
>  <Molecule>
CCOc1cc(C(O)C2C=CC3C(=O)N(C4CCCCC4)C(=O)C3N2Nc2ccc(OC)cc2)ccc1O (configuration not stated)

>  <Group Label>
label 0

$$$$
>  <Molecule>
[N-]=[N+]=NCc1ccccc1[C@H]1OC(c2ccc(OCCCO)cc2)=N[C@@]1(CCS(=O)(=O)c1ccccc1)C(N)=O

>  <Group Label>
label 0

$$$$
>  <Molecule>
[N-]=[N+]=NCc1ccccc1C[C@@]1(C(=O)NCCN2CCOCC2)N=C(c2ccc(OCCCO)cc2)O[C@@H]1c1ccccc1N=[N+]=[N-]

>  <Group Label>
label 1

$$$$

###

# Tested on: XIP peptide (Xip251-270) binding
# Experimental Protocol: small-molecule binders of XIP peptide, primary screen, biochemical, small-molecule microarray, fluorescence 635/667 nm, 0.1 µg/mL protein (AID 1182)
# Condition Context: fluorescent protein binding, 635 nm, higher = more signal, called active from +8 up or from −8 down
Activity calls are given as the source filed them.
Items are presented alongside their recorded composite z-score.

>  <Molecule>
C=C(C(=O)CC[C@H](OC(=O)c1cccnc1)c1cccc(OCCO)c1)C(C)C

>  <composite z-score>
0.24 (inactive)

$$$$
>  <Molecule>
COc1ccc([Si](C)(C)[C@H]2[C@H](CCn3cc([C@H](O)c4ccccc4)nn3)O[C@@]3(C(=O)N(Cc4ccc(N5CCC5=O)cc4)c4ccccc43)[C@@H]2C)cc1

>  <composite z-score>
0.588 (inactive)

$$$$
>  <Molecule>
COCC(=C=CC[C@H](O)c1ccc(OCCO)cc1)C[C@H](O)COCc1ccccc1

>  <composite z-score>
-0.0114 (inactive)

$$$$
>  <Molecule>
O=C1NC(=O)C2C1C=CC(C(O)c1c(F)cccc1Cl)N2Nc1ccccn1 (configuration not stated)

>  <composite z-score>
0.49 (inactive)

$$$$
>  <Molecule>
O=C1NC(=O)C2C1C=CC(C(O)c1cc(C(F)(F)F)cc(C(F)(F)F)c1)N2Nc1ccc(Cl)cc1Cl (configuration not stated)

>  <composite z-score>
1.75 (inactive)

$$$$
>  <Molecule>
O=C1O[C@@H](c2ccccc2)[C@@H](c2ccccc2)N2[C@@H](c3ccc(O)cc3)[C@]3(C(=O)Nc4ccc(C#CCCO)cc43)[C@@H](C(=O)Nc3nc4ccccc4s3)[C@H]12

>  <composite z-score>
0.336 (inactive)

$$$$
>  <Molecule>
O=C1O[C@@H](c2ccccc2)[C@@H](c2ccccc2)N2[C@@H](c3ccc(O)cc3)[C@]3(C(=O)Nc4ccccc43)[C@@H](C(=O)Nc3nc4ccccc4s3)[C@H]12

>  <composite z-score>
1.03 (inactive)

$$$$
